- targetSystem: PKN3 (Homo sapiens)
- methodSummary: PKN3 kinase inhibition, off-chip mobility shift assay
- Type: biochemical
- Parameters: Full-length, FLAG-tagged human PKN1, PKN2 and PKN3 were expressed in mammalian HEK-293 cells
- measurementConditions: product inhibition, competitive with respect to ATP; 5 μM peptide, 7.8–250 μM ATP, 4 nM enzyme, 5 μM arachidonic acid; read-out: PKN3 Ki
valueKind: Ki (µM)
Numeric answer only, unit µM assumed.

Enter recorded Ki with PKN3 (Homo sapiens) for `Nc1ncnc2c1ncn2[C@@H]1O[C@H](COP(=O)(O)OP(=O)(O)O)[C@@H](O)[C@H]1O` here.
69

* * *

- targetSystem: PKN2 (Homo sapiens, UniProt Q16513)
- Sequence (Q16513 whole entry): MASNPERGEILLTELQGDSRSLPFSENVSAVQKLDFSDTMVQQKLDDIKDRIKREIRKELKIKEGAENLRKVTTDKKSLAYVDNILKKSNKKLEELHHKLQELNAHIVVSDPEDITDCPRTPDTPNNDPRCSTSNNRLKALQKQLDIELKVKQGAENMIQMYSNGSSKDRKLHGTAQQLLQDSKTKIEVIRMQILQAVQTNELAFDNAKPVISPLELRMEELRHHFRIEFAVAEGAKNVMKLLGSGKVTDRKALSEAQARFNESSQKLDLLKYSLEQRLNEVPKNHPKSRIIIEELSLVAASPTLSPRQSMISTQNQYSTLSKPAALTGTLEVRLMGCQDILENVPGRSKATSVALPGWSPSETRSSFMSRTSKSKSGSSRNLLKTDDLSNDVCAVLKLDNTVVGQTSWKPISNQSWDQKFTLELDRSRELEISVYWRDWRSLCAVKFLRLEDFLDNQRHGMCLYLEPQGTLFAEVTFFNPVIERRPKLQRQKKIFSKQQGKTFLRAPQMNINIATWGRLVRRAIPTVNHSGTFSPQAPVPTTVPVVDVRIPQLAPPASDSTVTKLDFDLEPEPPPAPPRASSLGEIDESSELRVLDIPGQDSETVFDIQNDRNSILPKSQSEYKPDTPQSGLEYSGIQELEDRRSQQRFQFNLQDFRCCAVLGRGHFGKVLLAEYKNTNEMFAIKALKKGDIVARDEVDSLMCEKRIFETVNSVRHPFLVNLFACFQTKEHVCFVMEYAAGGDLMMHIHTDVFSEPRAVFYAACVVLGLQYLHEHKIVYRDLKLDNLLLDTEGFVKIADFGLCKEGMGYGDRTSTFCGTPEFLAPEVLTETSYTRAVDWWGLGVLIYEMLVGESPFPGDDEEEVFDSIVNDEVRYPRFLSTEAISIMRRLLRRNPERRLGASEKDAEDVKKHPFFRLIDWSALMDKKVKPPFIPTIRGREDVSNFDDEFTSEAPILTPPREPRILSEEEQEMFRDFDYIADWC
- methodSummary: Lipid activation of PKN2 kinase activity, off-chip mobility shift assay
- measurementConditions: lipid activator; saturating ATP (500 μM), 3 μM peptide, 5 nM PKN2
valueKind: EC50 (µM)
The reply should contain only the number, in µM.

Identify measured EC50 associated with `CCCCC/C=C\C/C=C\C/C=C\C/C=C\CCCC(=O)O`
9

* * *

- targetSystem: PKN1 (Homo sapiens, UniProt Q16512)
- Sequence (Q16512 whole entry): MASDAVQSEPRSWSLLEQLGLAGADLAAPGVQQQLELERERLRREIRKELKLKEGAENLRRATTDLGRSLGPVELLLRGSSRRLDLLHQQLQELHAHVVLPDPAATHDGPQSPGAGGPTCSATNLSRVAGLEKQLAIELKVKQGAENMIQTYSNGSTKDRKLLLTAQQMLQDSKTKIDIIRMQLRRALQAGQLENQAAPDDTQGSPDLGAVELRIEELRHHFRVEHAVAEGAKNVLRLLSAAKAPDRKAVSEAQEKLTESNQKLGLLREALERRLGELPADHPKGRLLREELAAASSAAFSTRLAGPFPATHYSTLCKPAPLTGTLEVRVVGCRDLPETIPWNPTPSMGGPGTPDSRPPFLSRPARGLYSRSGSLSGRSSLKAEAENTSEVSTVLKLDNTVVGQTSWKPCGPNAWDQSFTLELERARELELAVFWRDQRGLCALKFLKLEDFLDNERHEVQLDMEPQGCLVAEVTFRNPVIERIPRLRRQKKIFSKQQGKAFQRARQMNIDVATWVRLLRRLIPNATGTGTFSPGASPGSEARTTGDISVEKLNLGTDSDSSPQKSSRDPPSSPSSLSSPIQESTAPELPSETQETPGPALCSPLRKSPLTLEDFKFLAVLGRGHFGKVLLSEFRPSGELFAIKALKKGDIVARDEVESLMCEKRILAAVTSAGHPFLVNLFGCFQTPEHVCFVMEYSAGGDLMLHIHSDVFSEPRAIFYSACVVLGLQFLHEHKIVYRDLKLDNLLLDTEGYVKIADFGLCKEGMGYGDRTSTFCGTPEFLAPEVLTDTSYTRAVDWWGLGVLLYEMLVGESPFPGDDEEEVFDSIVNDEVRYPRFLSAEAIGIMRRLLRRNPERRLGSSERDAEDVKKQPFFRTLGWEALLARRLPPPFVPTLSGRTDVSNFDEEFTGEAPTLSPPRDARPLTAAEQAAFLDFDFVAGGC
- methodSummary: PKN1 kinase inhibition, off-chip mobility shift assay
- Format: biochemical
- Set-up: Full-length, FLAG-tagged human PKN1, PKN2 and PKN3 were expressed in mammalian HEK-293 cells; host or cells: HEK-293 (transient transfection, pcDNA4/TO)
- measurementConditions: product inhibition, non-competitive with respect to peptide; 50 μM ATP, 0.3–10 μM peptide, 1 nM enzyme, 100 μM arachidonic acid; read-out: PKN1 Kiapp
valueKind: Ki (µM)
Give a bare numeral; the unit µM is implied.

Please supply the value of reported Ki for the item `Nc1ncnc2c1ncn2[C@@H]1O[C@H](COP(=O)(O)OP(=O)(O)O)[C@@H](O)[C@H]1O`
170

* * *

- targetSystem: PKN1 (Homo sapiens, UniProt Q16512)
- methodSummary: Lipid activation of PKN1 kinase activity, off-chip mobility shift assay
- measurementConditions: lipid activator; saturating ATP (500 μM), 3 μM peptide, 1 nM PKN1
valueKind: EC50 (µM)
Reply numerically in µM, unit not repeated.

Report measured EC50; entry is `CCCCC/C=C\C/C=C\C/C=C\C/C=C\CCCC(=O)O`
11

* * *

- targetSystem: PKN1 (Homo sapiens)
- methodSummary: PKN1 kinase inhibition, off-chip mobility shift assay
- Assay type: biochemical
- Set-up: Full-length, FLAG-tagged human PKN1, PKN2 and PKN3 were expressed in mammalian HEK-293 cells; host or cells: HEK-293 (transient transfection, pcDNA4/TO)
- measurementConditions: absence of lipids; fit to competitive inhibition; ±S.D., n=2; read-out: PKN1, Ki
valueKind: pKi
Note on units: pKi is unitless, being -log10 of a concentration expressed in mol/L.

Note pKi for the compound shown: `O=C1Nc2ccc3ncsc3c2/C1=C/c1c[nH]cn1`
6.39

Next:
Dear colleague, please send me the reported pKi for `O=S(=O)(c1cccc2cnccc12)N1CCCNCC1` when you can.
6.10

Let me know recorded pKi for `CNCCNS(=O)(=O)c1cccc2cnccc12` , thanks.
5.74

Give pKi for `C[C@@H](N)[C@H]1CC[C@H](C(=O)Nc2ccncc2)CC1`
6.15

* * *

- targetSystem: PKN2 (Homo sapiens)
- methodSummary: PKN2 kinase inhibition, off-chip mobility shift assay
- Format: biochemical
- Design: Full-length, FLAG-tagged human PKN1, PKN2 and PKN3 were expressed in mammalian HEK-293 cells; host or cells: HEK-293 (transient transfection, pcDNA4/TO)
- measurementConditions: product inhibition, competitive with respect to ATP; 2 μM peptide, 6–200 μM ATP, 2 nM enzyme, 100 μM arachidonic acid; read-out: PKN2 Ki
valueKind: Ki (µM)
Give the quantity in µM, number only.

Please tell me the measured Ki for `Nc1ncnc2c1ncn2[C@@H]1O[C@H](COP(=O)(O)OP(=O)(O)O)[C@@H](O)[C@H]1O` ; system: PKN2 (Homo sapiens).
26

* * *

- targetSystem: PKN1 (Homo sapiens, UniProt Q16512)
- methodSummary: PKN1 kinase inhibition, off-chip mobility shift assay
- Format: biochemical
- Design: Full-length, FLAG-tagged human PKN1, PKN2 and PKN3 were expressed in mammalian HEK-293 cells; host or cells: HEK-293 (transient transfection, pcDNA4/TO)
pKi: −log10 of the molar value.
valueKind: pKi

Return reported pKi. Input compound: `Cc1ccc(-c2nn(C(C)(C)C)c3ncnc(N)c23)cc1`
< 5.30

* * *

- targetSystem: PKN3 (Homo sapiens, UniProt Q6P5Z2)
- Sequence (Q6P5Z2 whole entry): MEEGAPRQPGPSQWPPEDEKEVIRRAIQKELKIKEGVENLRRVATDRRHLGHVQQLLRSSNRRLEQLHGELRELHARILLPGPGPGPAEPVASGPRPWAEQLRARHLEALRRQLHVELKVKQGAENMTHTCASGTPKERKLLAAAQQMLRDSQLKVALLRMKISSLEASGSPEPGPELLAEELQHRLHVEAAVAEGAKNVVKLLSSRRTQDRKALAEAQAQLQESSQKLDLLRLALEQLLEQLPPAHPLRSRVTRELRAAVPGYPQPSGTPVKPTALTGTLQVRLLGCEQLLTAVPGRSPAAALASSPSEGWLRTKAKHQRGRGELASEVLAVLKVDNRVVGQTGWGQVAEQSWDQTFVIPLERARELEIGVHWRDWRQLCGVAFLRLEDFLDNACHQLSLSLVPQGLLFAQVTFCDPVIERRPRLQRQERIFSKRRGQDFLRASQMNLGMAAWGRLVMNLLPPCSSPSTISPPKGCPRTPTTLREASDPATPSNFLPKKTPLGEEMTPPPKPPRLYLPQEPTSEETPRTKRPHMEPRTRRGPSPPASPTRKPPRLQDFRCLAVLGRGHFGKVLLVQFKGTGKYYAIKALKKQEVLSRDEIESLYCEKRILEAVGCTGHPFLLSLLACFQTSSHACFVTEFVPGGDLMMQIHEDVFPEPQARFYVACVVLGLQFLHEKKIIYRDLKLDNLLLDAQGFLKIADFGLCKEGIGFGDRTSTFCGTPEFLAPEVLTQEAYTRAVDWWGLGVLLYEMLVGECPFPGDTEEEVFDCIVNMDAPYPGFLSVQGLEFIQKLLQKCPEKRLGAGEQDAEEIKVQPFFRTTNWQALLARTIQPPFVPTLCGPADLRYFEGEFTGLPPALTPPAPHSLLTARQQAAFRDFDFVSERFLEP
- methodSummary: PKN3 kinase inhibition, off-chip mobility shift assay
- Format: biochemical
- Design: Full-length, FLAG-tagged human PKN1, PKN2 and PKN3 were expressed in mammalian HEK-293 cells
- measurementConditions: product inhibition, non-competitive with respect to peptide; 50 μM ATP, 0.9–30 μM peptide, 4 nM enzyme, 5 μM arachidonic acid; read-out: PKN3 Kiapp
valueKind: Ki (µM)
Write down the numeric answer in µM and omit the unit.

Note Ki for the compound shown: Nc1ncnc2c1ncn2[C@@H]1O[C@H](COP(=O)(O)OP(=O)(O)O)[C@@H](O)[C@H]1O [ADP]
320

* * *

- targetSystem: UniProtKB Q16513
- methodSummary: PKN2 kinase inhibition, off-chip mobility shift assay
- Format: biochemical
- Design: Full-length, FLAG-tagged human PKN1, PKN2 and PKN3 were expressed in mammalian HEK-293 cells; host or cells: HEK-293 (transient transfection, pcDNA4/TO)
- measurementConditions: product inhibition, non-competitive with respect to peptide; 20 μM ATP, 0.3–10 μM peptide, 2 nM enzyme, 100 μM arachidonic acid; read-out: PKN2 Kiapp
valueKind: Ki
Kindly format the answer as number then unit.

Answer with reported Ki of `Nc1ncnc2c1ncn2[C@@H]1O[C@H](COP(=O)(O)OP(=O)(O)O)[C@@H](O)[C@H]1O`
65 µM

* * *

- targetSystem: PKN1 (Homo sapiens, UniProt Q16512)
- methodSummary: PKN1 kinase inhibition, off-chip mobility shift assay
- Assay type: biochemical
- Set-up: Full-length, FLAG-tagged human PKN1, PKN2 and PKN3 were expressed in mammalian HEK-293 cells; host or cells: HEK-293 (transient transfection, pcDNA4/TO)
- measurementConditions: absence of lipids; fit to competitive inhibition; ±S.D., n=2; read-out: PKN1, Ki
Readings of Ki for the listed molecules
Give just the number in µM; leave the unit off.

The cases that follow already have their Ki on record.
Respond only with Ki recorded for `Nc1nc(Nc2ccc(S(N)(=O)=O)cc2)nn1C(=S)Nc1c(F)cccc1F`
0.22

Fill in reported Ki for this entry: CN(C(Cc1ccc(OS(=O)(=O)c2cccc3cnccc23)cc1)C(=O)N1CCN(c2ccccc2)CC1)S(=O)(=O)c1cccc2cnccc12 (stereo not drawn)
2.9

Field: next molecule
Tell me measured Ki for CN(C)CCCn1cc(C2=C(c3c[nH]c4ccccc34)C(=O)NC2=O)c2ccccc21 [Compound 3, GF 109203X] please.
0.079

// provenance: paper PMC3958129
